These data points were gathered from ChEMBL document CHEMBL1201862.

System: NCI-H23
Experiment: NCI tumour cell line growth inhibition, 48 h
The source made the active and inactive calls. No stated cut-off is given here; in the data, active = GI50 up to about 1.1 µM and inactive = higher.
Thanks in advance; please answer with one of these: YES for active, NO for inactive

Record excerpt, results attached:
[
  {
    "Compound": "CC(C)(C)C1=C(Br)C(C(C)(C)C)OP1(=O)O (centres undefined)",
    "Assigned Class": "NO"
  },
  {
    "Compound": "O=C(NCCCN1CCN(CCCNC(=O)Nc2cc(Cl)ccc2Cl)CC1)Nc1cc(Cl)ccc1Cl",
    "Assigned Class": "NO"
  },
  {
    "Compound": "CC1(C)[C@H]2CC[C@@]13C(=O)N1C(=O)O[C@@H]([C@H]1Cl)C(Cl)(COCc1ccccc1)C(=O)OCCO[C@H]3C2 (some centres undefined)",
    "Assigned Class": "NO"
  },
  {
    "Compound": "O=C(O)c1[nH]c(=O)[nH]c(=O)c1CN1CCCCC1",
    "Assigned Class": "NO"
  },
  {
    "Compound": "COc1cc2c(cc1O)[C@@]1(Cc3ccc(OC)c(OC)c3)CCC(=O)N1CC2",
    "Assigned Class": "NO"
  }
]

I would be grateful if you could indicate the recorded call for COc1cc([C@@H]2c3cc4c(cc3C(N)C3COC(=O)[C@@H]32)OCO4)cc(OC)c1O (some centres undefined) . YES

I would be grateful if you could indicate the recorded call for Cc1cc2nc3c(=O)n(C)c(=O)nc-3n(-c3ccc(Cl)cc3)c2cc1C . NO

I would be grateful if you could indicate the recorded call for CC(C)(C)c1cc(C(C)(C)C)c(P=C(Cl)Cl)c(C(C)(C)C)c1 (centres undefined) . NO

I would be grateful if you could indicate the recorded call for COC(=O)[C@H](Cc1c[nH]c2ccccc12)NC(=O)c1ccc(CNC(=O)/C(C)=C/c2ccccc2)cc1 . NO

----------
Entries and their measured GI50 follow.
System: NCI-H522
Assay: NCI tumour cell line growth inhibition, 48 h
Active and inactive are the calls of the source. No stated cut-off is given here; in the data, active = GI50 up to about 1.1 µM and inactive = higher.

// known answers, use as guide
[
  {
    "Compound": "CC1=NN(C(=O)CC(=O)Nc2cccc(C)c2)C(=O)C1/N=N/c1ccc(C(=O)O)cc1 (stereo not given)",
    "Result": "> 100 µM (inactive)"
  },
  {
    "Compound": "CCN(C(=O)/C=C/c1ccco1)c1ccccc1",
    "Result": "> 100 µM (inactive)"
  },
  {
    "Compound": "Cc1cc2c(cc1O)CC[C@@H]1[C@@H]2CC[C@]2(C)[C@@H](O)CC[C@@H]12",
    "Result": "7.45 µM (inactive)"
  },
  {
    "Compound": "C=CCCC(CCC=C)(C(=O)O)C(=O)O",
    "Result": "> 100 µM (inactive)"
  },
  {
    "Compound": "Cc1c(C)n(-c2ccccc2)c2nc([S+](C)[O-])nc([S+](C)[O-])c12 (stereo not given)",
    "Result": "1.89 µM (inactive)"
  }
]

Dear colleague, I am looking for the recorded GI50 of the following compound: CNC(=S)N/N=C/c1ccc([N+](=O)[O-])s1 > 10 µM (inactive)

Dear colleague, I am looking for the recorded GI50 of the following compound: C=C[C@@]1(O)CCCC2=C(C(=O)OCC)CC[C@]21C > 100 µM (inactive)

Dear colleague, I am looking for the recorded GI50 of the following compound: CCCCc1c2c(nc3c1CCCC3=O)C(=O)CCC2 > 100 µM (inactive)

Dear colleague, I am looking for the recorded GI50 of the following compound: CCOC(=O)C(=[N+]=[N-])C(=O)CN1C(=O)C2CC(C)=C(C)CC2C1O (stereo not given) > 100 µM (inactive)

Dear colleague, I am looking for the recorded GI50 of the following compound: CC(=O)OC(CCC1(C)OC1COc1ccc(CCNC(=O)c2ccccc2)cc1)C(C)(C)OC(C)=O (stereo not given) 22.9 µM (inactive)

----------
System: HOP-92
Test: NCI tumour cell line growth inhibition, 48 h
Activity calls are given as the source filed them. Rule as the data show it: active = GI50 up to about 1.1 µM and inactive = higher.
Property Measured: GI50

// known answers, use as guide
[
  {
    "Molecule": "CC(C)(C)c1cc(C(C)(C)C)c(P=C(Cl)Cl)c(C(C)(C)C)c1 (stereo unspecified)",
    "Measured Target": "HOP-92",
    "Result": "> 100 µM (inactive)"
  },
  {
    "Molecule": "Cc1cc(C)c2c(c1)C(=O)C1(C2)Cc2c(ccc(C)c2C)C1=O (stereo unspecified)",
    "Measured Target": "HOP-92",
    "Result": "> 100 µM (inactive)"
  },
  {
    "Molecule": "CC(C)c1cccc(=O)c(O)c1 [HINOKITIOL]",
    "Measured Target": "HOP-92",
    "Result": "15.9 µM (inactive)"
  }
]

The record that follows has no GI50 shown yet.
Dear colleague, I am looking for the recorded GI50 of the following molecule: NNC(=O)Cn1ccnn1 > 100 µM (inactive)

----------
Test system: SF-295
Test: NCI tumour cell line growth inhibition, 48 h
Activity calls are given as the source filed them. Cut-off read from the data, not from the text of the source: active = GI50 up to about 1.1 µM and inactive = higher.
Entries and their measured GI50 follow.

[
  {
    "Molecule": "CCOC(=O)c1ccc(NC(=O)SCCC(=O)O)cc1",
    "GI50": "> 100 µM (inactive)"
  },
  {
    "Molecule": "O=C(NCCCN1CCN(CCCNC(=O)Nc2cc(Cl)ccc2Cl)CC1)Nc1cc(Cl)ccc1Cl",
    "GI50": "49.3 µM (inactive)"
  },
  {
    "Molecule": "COc1cc2c(cc1O)[C@@]1(Cc3ccc(OC)c(OC)c3)CCC(=O)N1CC2",
    "GI50": "> 100 µM (inactive)"
  },
  {
    "Molecule": "COc1cc2c(cc1OCCCCCOc1cc3c(cc1OC)C(=O)N1CCC[C@H]1CN3)N=C[C@@H]1CCCN1C2=O",
    "GI50": "6.14 µM (inactive)"
  },
  {
    "Molecule": "CC(C)c1cccc2sc(NC(=O)C(=O)CC(=O)c3ccc(F)cc3)nc12",
    "GI50": "> 100 µM (inactive)"
  },
  {
    "Molecule": "O=C1NC(N2CCCCC2)=N/C1=C\\c1ccco1",
    "GI50": "> 100 µM (inactive)"
  },
  {
    "Molecule": "O=C1NC2C(CCO)CC=C[C@H]2c2cc3c(cc21)OCO3 (stereo partly drawn)",
    "GI50": "> 100 µM (inactive)"
  },
  {
    "Molecule": "Nc1c(-c2ccc(Cl)cc2)[n+]([O-])c2ccccc2[n+]1[O-]",
    "GI50": "87.7 µM (inactive)"
  }
]

Dear colleague, I am looking for the recorded GI50 of the following molecule: Cc1ccc(/C=C/C(=O)CCN(C)C)cc1 33 µM (inactive)

Dear colleague, I am looking for the recorded GI50 of the following molecule: Cc1ccc(C)c(N2C(=O)C(=O)C(c3nc4ccccc4o3)/C(=N\NC(=O)c3ccccc3O)C2=O)c1 (stereo not drawn) 56.2 µM (inactive)

----------
Test system: MCF7
Assay: NCI tumour cell line growth inhibition, 48 h
Activity calls are given as the source filed them. No stated cut-off is given here; in the data, active = GI50 up to about 1.1 µM and inactive = higher.
Property Measured: GI50

// known answers, use as guide
[
  {
    "Molecule": "CN(C)c1ccc(/C=N/N=C2\\C(=O)Nc3c(Cl)cc(Cl)cc32)cc1",
    "Property Measured": "GI50",
    "Result": "46.2 µM (inactive)"
  },
  {
    "Molecule": "O=C1C=C(C2=CC(=O)C(=O)c3ccccc32)c2ccccc2C1=O",
    "Property Measured": "GI50",
    "Result": "9.98 µM (inactive)"
  },
  {
    "Molecule": "C=C1[C@H](OCC(C)C)[C@@H](OC(=O)C(C)CC)[C@@H](O)C(C)(C)/C=C/[C@H](C)C(=O)[C@@]2(O)C[C@H](C)[C@H](O)[C@@H]2[C@H]1OC(=O)C(C)CC (some centres undefined)",
    "Property Measured": "GI50",
    "Result": "5.92 µM (inactive)"
  }
]

The record that follows has no GI50 shown yet.
Dear colleague, I am looking for the recorded GI50 of the following molecule: CO/N=C\c1cc(O)c(O)c(/C=N/OC)c1 29.3 µM (inactive)

----------
Test system: UO-31
Experiment: NCI tumour cell line growth inhibition, 48 h
Active and inactive are the calls of the source. Rule as the data show it: active = GI50 up to about 1.1 µM and inactive = higher.
Entries and their measured GI50 follow.

// known answers, use as guide
[
  {
    "Compound": "CN(C)CCCCN1c2ccccc2Sc2ccc(C(=O)c3ccccc3)cc21",
    "Property Measured": "GI50",
    "Result": "2.6 µM (inactive)"
  },
  {
    "Compound": "NNC(=O)c1ccc(-n2nnc(C(=O)NN)c2C(=O)NN)cc1",
    "Property Measured": "GI50",
    "Result": "> 100 µM (inactive)"
  },
  {
    "Compound": "Cn1c2ccccc2c(=NNc2ccc(S(N)(=O)=O)cc2)c2ccccc21",
    "Property Measured": "GI50",
    "Result": "10.7 µM (inactive)"
  },
  {
    "Compound": "CC(Oc1ccc(OCC2CCCCC2)cc1)C(=O)N(CCO)CCO (stereo not given)",
    "Property Measured": "GI50",
    "Result": "> 100 µM (inactive)"
  }
]

// map CNCCN[C@@H]1c2cc3c(cc2[C@@H](c2cc(OC)c(O)c(OC)c2)[C@H]2C(=O)OC[C@@H]21)OCO3 to recorded GI50 (system: UO-31) 1.32 µM (inactive)
